// provenance: PubChem BioAssay (Tox21)

- TARGET SYSTEM: D(2) dopamine receptor (Homo sapiens) (UniProt P14416)
- Sequence (P14416 whole entry, looked up): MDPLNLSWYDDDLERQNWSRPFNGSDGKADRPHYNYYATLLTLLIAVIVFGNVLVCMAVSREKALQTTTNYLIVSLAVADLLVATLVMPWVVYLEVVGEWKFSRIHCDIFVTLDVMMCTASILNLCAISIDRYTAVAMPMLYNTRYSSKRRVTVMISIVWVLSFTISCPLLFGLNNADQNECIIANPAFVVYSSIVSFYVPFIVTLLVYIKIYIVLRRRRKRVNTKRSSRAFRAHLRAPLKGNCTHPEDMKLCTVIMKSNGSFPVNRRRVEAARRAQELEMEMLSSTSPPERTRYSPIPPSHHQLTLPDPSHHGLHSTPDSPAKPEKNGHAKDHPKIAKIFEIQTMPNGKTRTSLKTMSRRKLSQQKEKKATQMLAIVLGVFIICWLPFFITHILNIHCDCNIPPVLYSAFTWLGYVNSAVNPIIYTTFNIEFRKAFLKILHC
- EXPERIMENT DESCRIPTION: Dopamine D2 receptor (DRD2) small molecule agonists, cell-based qHTS assay (AID 1963594); note: % is set by controls: 0 for no effect and ±100 for the full control effect; nearly all actives have a fitted effect of over 35% in size
- EXPERIMENTAL SETUP: HEK293-DRD2 cAMP HTRF, agonist mode, 30 min; series mostly up to 92.4 µM
Records with an inconclusive call do not appear. Activity calls are given as the source filed them. Calls come from the whole dose curve.
PARAMETER MEASURED: activation

| COMPOUND | activation |
| --- | --- |
| CCc1cc(C)cc(CC)c1-c1c(OC(=O)C(C)(C)C)n2n(c1=O)CCOCC2 | inactive |
| CC(C)CON=O | inactive |
| CC12CC1(C)C(=O)N(c1cc(Cl)cc(Cl)c1)C2=O (stereo not drawn) | inactive |
| c1ccc(NNc2ccccc2)cc1 | inactive |
| CC(Cl)CCl (stereo not drawn) | inactive |

Need activation of Nc1ccc(-c2ccc(N)cc2)cc1 , thanks. inactive

So what's the measured activation for this one? S=c1[nH]c2ccccc2[nH]1 inactive

What does the data say about its activation? Entry: O=C(CCl)CCl inactive

What value of activation has been recorded for this entry: CC[C@H](N)c1ccccc1 inactive

====

- EXPERIMENT DESCRIPTION: p53 small molecule agonists, cell-based qHTS assay with human liver microsomes: qHTS cell viability counter screen (AID 1963579); note: % is set by controls: 0 for no effect and ±100 for the full control effect; nearly all actives have a fitted effect of over 45% in size
- EXPERIMENTAL SETUP: p53RE-bla HCT-116 viability, ATP luminescence, 16 h, HLM; series mostly up to 66 µM
Results filed as inconclusive are left out. The source made the active and inactive calls. Calls come from the whole dose curve.
// one of Y (active), N (inactive), no free text

A selection of reference data follows.
| COMPOUND | ANSWER LABEL |
| --- | --- |
| CCCC[N+]1(C)CCCC1 | N |
| Clc1cnc(Oc2ccc(Oc3ncc(Cl)cc3Cl)cc2)c(Cl)c1 | N |
| c1ccc(CN2CCNCC2)cc1 | N |

Hello, I am checking results. What call was entered for O=C(O)CCl ? N

Could you please tell me the result logged for COP(=O)(CCC(=O)NCO)OC in this assay? N

Tell me the recorded outcome of this test for O=C1CCCO1 . N

====

- TARGET SYSTEM: Muscarinic acetylcholine receptor M1 (Homo sapiens)
- EXPERIMENT DESCRIPTION: Cholinergic receptor muscarinic 1 (CHRM1) small molecule antagonists, cell-based qHTS assay (AID 1963588); note: % is set by controls: 0 for no effect and ±100 for the full control effect; nearly all actives have a fitted effect of over 40% in size
- EXPERIMENTAL SETUP: CHRM1-CHO antagonist mode, calcium flux fluorescence; series mostly up to 61.5 µM
Inconclusive results are not listed. Active and inactive are the calls of the source. Calls come from the whole dose curve.
Pick one and only one: 1 (yes) (active), 0 (no) (inactive)

Some solved cases for reference:
| COMPOUND | ANSWER LABEL |
| --- | --- |
| O=C1c2ccccc2C(=O)N1SC(Cl)(Cl)Cl | 0 (no) |
| Sc1ccccc1Cl | 0 (no) |
| CN(C)C(=O)Nc1ccc(Cl)cc1 | 0 (no) |
| O=[N+]([O-])c1ccccc1 | 0 (no) |
| C1=Cc2cccc3cccc1c23 | 0 (no) |
| O=P(Cl)(Cl)Cl | 0 (no) |
| CNC(=S)S | 0 (no) |
| C=CC(=O)OCCO | 0 (no) |
| CCCCCCOC(=O)c1ccccc1C(=O)OCCCCCC | 0 (no) |
| CCCCCON=O | 0 (no) |

Entry O=C(O)C(Cl)Cl : call = ? 0 (no)

Field: outcome | Entry: CC(C)(O)C(=O)Nc1ccc([N+](=O)[O-])c(C(F)(F)F)c1 0 (no)

====

- EXPERIMENT DESCRIPTION: p53 small molecule agonists, cell-based qHTS assay (AID 1963582); note: % is set by controls: 0 for no effect and ±100 for the full control effect
- EXPERIMENTAL SETUP: HCT-116 p53RE-bla reporter, beta-lactamase FRET ratio, 16 h; series mostly up to 66 µM
Results filed as inconclusive are left out. Active and inactive are the calls of the source. Calls come from the whole dose curve; as a rule, active = well fitted activation curve with a large enough effect in the signal ratio in the repeat runs (not every such curve was filed as active); inconclusive = weak or mixed curves; inactive = flat fitted curve, though single readings scatter; the % refers to the signal ratio.
The reply should name one outcome from 1 = active, -1 = inactive

| COMPOUND | ANSWER LABEL |
| --- | --- |
| C1CN2CCC1CC2 | -1 |
| COC(C)(C)C | -1 |

Now let's try a different one.
Hey, what did the test say about BrCCc1ccccc1 ? -1

====

- EXPERIMENT DESCRIPTION: Nuclear factor erythroid 2-related factor 2/antioxidant responsive element (Nrf2/ARE) small molecule agonists: luciferase reporter gene qHTS assay in human keratinocytes (AID 1919969); note: nearly all actives have a fitted effect of over 35% in size
- EXPERIMENTAL SETUP: KeratinoSens HaCaT ARE-luciferase, luminescence, 24 h; series mostly up to 92.4 µM
Results filed as inconclusive are left out. The source made the active and inactive calls. Calls come from the whole dose curve.
Bench note: report the call from t (active), f (inactive)

Test call, this compound: c1ccc(N=Nc2ccccc2)cc1 f

Hi, sorry to bother you, what did the test record for CN(C)c1ccc(N(C)C)cc1 ? t

What was the test verdict on CCCCCCCCCCCCCCCC[N+](C)(C)C ? f

====

- EXPERIMENT DESCRIPTION: Nuclear factor erythroid 2-related factor 2/antioxidant responsive element (Nrf2/ARE) small molecule agonists: qHTS cell viability counter screen in human keratinocytes (AID 1919968); note: % is set by controls: 0 for no effect and ±100 for the full control effect; nearly all actives have a fitted effect of over 55% in size
- EXPERIMENTAL SETUP: KeratinoSens HaCaT ARE cells viability, CellTiter-Fluor, 24 h; series mostly up to 92.4 µM
Results filed as inconclusive are left out. Calls of active or inactive are those of the source. Calls come from the whole dose curve; as a rule, active = well fitted cell-killing curve with a large enough effect in the repeat runs; inconclusive = weak or mixed curves, or effect the other way; inactive = flat fitted curve, though single readings scatter.
Returns: one label drawn from yes (1) (active), no (0) (inactive)

Sample answers from the record:
| COMPOUND | ANSWER LABEL |
| --- | --- |
| C[C@]12CC[C@H]3[C@@H](CC[C@@]45O[C@@H]4C(O)=C(C#N)C[C@]35C)[C@@H]1CC[C@@H]2O | no (0) |
| C=C(C)C(=O)OCC1CO1 (configuration not stated) | no (0) |

What did the test return for CCCCCCCCCCCCCl ? no (0)

Look up the recorded call for c1ccoc1 in this test. no (0)

# lookup: test call for O=C(O)c1cc(Oc2ccc(C(F)(F)F)cc2Cl)ccc1[N+](=O)[O-] no (0)

State the result this test recorded for O=[N+]([O-])CCO . no (0)

Which result was noted for this compound in the test: CCCCC(CC)C(=O)Cl (configuration not stated) no (0)

====

- EXPERIMENT DESCRIPTION: p53 small molecule agonists, cell-based qHTS assay with rat liver microsomes: qHTS cell viability counter screen (AID 1963580); note: % is set by controls: 0 for no effect and ±100 for the full control effect; nearly all actives have a fitted effect of over 45% in size
- EXPERIMENTAL SETUP: p53RE-bla HCT-116 + rat microsomes, ATP viability, 16 h; series mostly up to 66 µM
- Description: National Center for Advancing Translational Sciences [NCATS] Division of Preclinical Innovation [DPI] U.S. Environmental Protection Agency [EPA] National Institutes of Environmental Health Sciences [NIEHS] National Toxicology Program [NTP] U.S. Food and Drug Administration [FDA] p53, a tumor suppressor protein, is activated following cellular insult, including DNA damage and other cellular stresses. […] The activation of the reporter gene under culture conditions can be detected by fluorescence intensity. […]
Results filed as inconclusive are left out. The source made the active and inactive calls. The call rests on the fitted dose curve.
PARAMETER MEASURED: outcome

Consider the worked cases shown below.
| COMPOUND | outcome |
| --- | --- |
| O=C/C=C/c1ccccc1 | inactive |
| Cn1cc[n+](C)c1 (tested in a mixture with another compound) | inactive |
| CN(C)C(=O)Cl | inactive |
| Nc1nc(=S)[nH][nH]1 | inactive |
| CCN(CC)C(=O)/C(Cl)=C(\C)OP(=O)(OC)OC | inactive |
| CCN(CC)C1CCCCC1 | inactive |
| COP(=S)(OC)SCN1C(=O)c2ccccc2C1=O | inactive |
| OCC(Cl)CCl (stereo not drawn) | inactive |

Entry under review: Oc1ccc(Cl)cc1Cl . Reported outcome? inactive

For the compound O=[N+]([O-])/C=C/c1ccccc1 , what outcome is on record? inactive

====

- TARGET SYSTEM: Beta-2 adrenergic receptor (Homo sapiens) (UniProt P07550)
- Sequence (P07550 whole entry, looked up): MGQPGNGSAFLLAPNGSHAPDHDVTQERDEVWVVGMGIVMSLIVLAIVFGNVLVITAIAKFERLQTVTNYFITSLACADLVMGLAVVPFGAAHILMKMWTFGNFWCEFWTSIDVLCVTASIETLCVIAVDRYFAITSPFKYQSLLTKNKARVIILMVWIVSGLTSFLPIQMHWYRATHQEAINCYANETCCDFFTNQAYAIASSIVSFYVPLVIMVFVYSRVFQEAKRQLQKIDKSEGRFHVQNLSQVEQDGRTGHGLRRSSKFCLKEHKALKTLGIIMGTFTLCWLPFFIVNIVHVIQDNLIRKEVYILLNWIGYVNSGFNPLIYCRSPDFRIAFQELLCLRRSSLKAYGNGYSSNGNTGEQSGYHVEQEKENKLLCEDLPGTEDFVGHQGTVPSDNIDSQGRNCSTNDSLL
- EXPERIMENT DESCRIPTION: Adrenergic beta2 receptor (ADRB2) small molecule antagonists, cell-based qHTS assay (AID 1963592); note: % is set by controls: 0 for no effect and ±100 for the full control effect; nearly all actives have a fitted effect of over 50% in size
- EXPERIMENTAL SETUP: CHO-ADRB2 cells, isoproterenol-stimulated cAMP HTRF ratio, 0.5 h; series mostly up to 92.4 µM
Records with an inconclusive call do not appear. Activity calls are given as the source filed them. Calls follow the shape of the full dose curve.
Answer with one of the outcomes active, inactive

Field: example entries. Status: answers known.
| MOLECULE | ANSWER LABEL |
| --- | --- |
| CC(=O)CCC(C)=O | inactive |
| CC(C)c1ccc(O)cc1 | inactive |
| Nc1nc(N)nc(Cl)n1 | inactive |

Can you look up the reported call for CCCOC(=O)c1cncn1C(C)c1ccccc1 (configuration not stated) for me? inactive

# fetch the recorded call for O=C(Nc1ccc(Br)cc1)c1cc(Br)cc(Br)c1O here inactive

Identify the outcome logged in this assay for the molecule shown: CCOC(=O)CC(SP(=O)(OC)OC)C(=O)OCC (configuration not stated) inactive

Identify the outcome logged in this assay for the molecule shown: CC(C)[N+](C)(CCC(C(N)=O)(c1ccccc1)c1ccccc1)C(C)C inactive

Tell me the assay call for CN(C)C(=S)SSC(=S)N(C)C please. inactive
